biological target: SpPex13; assay: SPOT peptide array binding signal intensity (averaged, normalized) (arbitrary units (background-subtracted, floor 0; scale differs between SH3 domains)); higher = stronger binding of the SH3 domain to the peptide
Threshold check on SPOT peptide array binding signal intensity: at or above 50 gives TRUE, strictly below gives FALSE.

Ask: # bool: SPOT peptide array binding signal intensity of EAEEAAPQLPSRSSA >= 50
Result: FALSE

Ask: # bool: SPOT peptide array binding signal intensity of YSRKKLPVVLSKMTL >= 50
Result: TRUE

Ask: # bool: SPOT peptide array binding signal intensity of AVPPPPPPPPLPESL >= 50
Result: FALSE

Ask: # bool: SPOT peptide array binding signal intensity of RRSKSLPITPKSIFN >= 50
Result: FALSE

Ask: # bool: SPOT peptide array binding signal intensity of NAGIRPKFILALNDE >= 50
Result: FALSE

Ask: # bool: SPOT peptide array binding signal intensity of QLMKNLPKIPLLNDI >= 50
Result: TRUE

Ask: # bool: SPOT peptide array binding signal intensity of NLDRSKISLPDFDDE >= 50
Result: FALSE

Ask: # bool: SPOT peptide array binding signal intensity of STKKPRPPVKSKPKH >= 50
Result: FALSE

Ask: # bool: SPOT peptide array binding signal intensity of NGRRRPKFRVQLSGN >= 50
Result: TRUE

Ask: # bool: SPOT peptide array binding signal intensity of RKNRAPPQRPRFNRD >= 50
Result: FALSE

Ask: # bool: SPOT peptide array binding signal intensity of QQEQNTPPLPPKPKS >= 50
Result: FALSE

Ask: # bool: SPOT peptide array binding signal intensity of RPKRRAPPPVPKKPS >= 50
Result: TRUE

Ask: # bool: SPOT peptide array binding signal intensity of KRNRLKILLPFLEQS >= 50
Result: FALSE

Ask: # bool: SPOT peptide array binding signal intensity of KRKRRLPVSEDTNTK >= 50
Result: FALSE

Ask: # bool: SPOT peptide array binding signal intensity of RKRRTHLRLPLIRSN >= 50
Result: FALSE

The reported numbers originate from the supplement of paper PMC4466140.
